- ASSAY_TEXT: Initial color of polymer plate (visual observation, YI by color-difference meter)
- Format: physicochemical
- CONDITION_SUMMARY: before irradiation
RECORDED_METRIC: Initial color, visually observed

Illustrative cases are given below, each with its answer.
compound="COC12CC3CC(C1)C1(c4c(c5ccccc5n4-c4ccccc4)C(C4CC4)=C4C(=O)N(C(Cl)(Cl)Cl)C(=O)C41)C(C3)C2 (stereo not shown)" test_value=colorless
compound="CCN1C(=O)C2=C(C)c3cc(-c4ccc(OC)cc4)n(C)c3C3(C4CC5CC(C4)CC3C5)C2C1=O (stereo not shown) [G, reference compound]" test_value=yellow
compound="CC(=O)N1C(=O)C2=C(C)c3ccsc3C3(C4CC5CC(C4)CC3C5)C2C1=O (stereo not shown)" test_value=colorless
compound="CC(=O)N1C(=O)C2=C(C3CC3)c3cc(C)sc3C3(C4CC5CC(C4)CC3C5)C2C1=O (stereo not shown)" test_value=colorless

What value of Initial color, visually observed has been reported for the following compound? O=C1C2=C(c3ccccc3)c3c(oc4ccccc34)C3(C4CCC3CC4)C2C(=O)N1C(Cl)(Cl)Cl (stereo not shown)
colorless

Follow-up entry: CCOC(=O)CN1C(=O)C2=C(C)c3cc(-c4ccc(OC)cc4)n(C)c3C3(C4CC5CC(C4)CC3C5)C2C1=O (stereo not shown) [H, reference compound]
yellow

Follow-up entry: COc1ccc(C2=C3C(=O)N(C(=O)c4ccccc4)C(=O)C3C3(c4oc5ccccc5c42)C2CC4CC3CC(C)(C4)C2)cc1 (stereo not shown)
colorless

---

- ASSAY_TEXT: Developed color of polymer plate under xenon light (color density, maximum absorption wavelength)
- Assay type: physicochemical
- CONDITION_SUMMARY: 0.04 parts in polymer plate
- Text: 0.04 Parts of fulgimide compounds shown in Table 3, 70 parts of tetraethyleneglycol dimethacrylate, 15 parts of triethyleneglycol dimethacrylate, 10 parts of glycidyl methacrylate, 5 parts of 2-hydroethylmethacrylate and 1 part of perbutyl ND as a polymerization catalyst, were sufficiently mixed together until they were completely dissolved. […]
RECORDED_METRIC: Color density

Illustrative cases are given below, each with its answer.
molecule="N#CN1C(=O)C2=C(C3CC3)c3ccoc3C3(C4CC5CC(C4)CC3C5)C2C1=O (stereo not drawn) [Compound 29]" test_value=0.98
molecule="CC1=C2C(=O)N(C(=O)c3cccc(C#N)c3)C(=O)C2C2(c3c1c1c(n3C)CCCC1)C1CC3CC(F)(C1)CC2(F)C3 (stereo not drawn) [Compound 11]" test_value=0.88
molecule="CC(=O)N1C(=O)C2=C(C3CC3)c3cc(C)sc3C3(C4CC5CC(C4)CC3C5)C2C1=O (stereo not drawn) [Compound 4]" test_value=1.43
molecule="CCOC(=O)N1C(=O)C2=C(C)c3c(sc4ccccc34)C3(C4CCCC3(OC)CCC4)C2C1=O (stereo not drawn) [Compound 15]" test_value=0.85

(1) O=C1C2=C(C3CC3)c3c(sc4c3CCCC4)C3(C4CC5CC(C4)CC3C5)C2C(=O)N1S(=O)(=O)c1ccccc1 (stereo not drawn) [Compound 10]
(2) N#CN1C(=O)C2=C(C3CC3)c3ccsc3C3(C4CC5CC(C4)CC3C5)C2C1=O (stereo not drawn) [Compound 1]
Larger number for Color density: 1 , or 2 ? // respond with label for picked entry
1
(1: 1.12, 2: 0.65)

---

- ASSAY_TEXT: Developed color of polymer plate under xenon light (color density, maximum absorption wavelength)
- Format: physicochemical
- CONDITION_SUMMARY: state of developing color, polymer plate
RECORDED_METRIC: λ max (nm)

compound="CCN1C(=O)C2=C(C)c3cc(-c4ccc(OC)cc4)n(-c4ccccc4)c3C3(C4CC5CC(C4)CC3C5)C2C1=O (centres unmarked) [F, reference compound]" recorded_metric="λ max" unit_tag=nm test_value=600
compound="CCCCC12CCC(CC1)C21c2sc(C)c(CC)c2C(C2CC2)=C2C(=O)N(C(=O)c3cccc(C(F)(F)F)c3)C(=O)C21 (centres unmarked)" recorded_metric="λ max" unit_tag=nm test_value=610
compound="CCC1=C2C(=O)N(S(=O)(=O)O)C(=O)C2C2(c3c(OC)cc(OC)cc31)C1CC3CC(C1)CC2C3 (centres unmarked)" recorded_metric="λ max" unit_tag=nm test_value=568
compound="CC1=C2C(=O)N(CC#N)C(=O)C2C2(c3sc(-c4ccccc4)cc31)C1CC3CC(C1)CC2C3 (centres unmarked) [D, reference compound]" recorded_metric="λ max" unit_tag=nm test_value=570
compound="CSc1cc2c(n1C)C1(C3C(=O)N(C(F)(F)F)C(=O)C3=C2C(C)C)C2(C)CCC1(C)CC2 (centres unmarked)" recorded_metric="λ max" unit_tag=nm test_value=603
compound="Cn1c(Cl)cc2c1C1(C3CCCC1(Cl)CCC3)C1C(=O)N(C(F)(F)F)C(=O)C1=C2c1ccccc1 (centres unmarked)" recorded_metric="λ max" unit_tag=nm test_value=603
compound="N#CN1C(=O)C2=C(C3CC3)c3ccsc3C3(C4CC5CC(C4)CC3C5)C2C1=O (centres unmarked)" recorded_metric="λ max" unit_tag=nm test_value=615
compound="COc1cc(OC)c2c(c1)C(C)=C1C(=O)N(C#N)C(=O)C1C21C2CC3CC(C2)CC1C3 (centres unmarked)" recorded_metric="λ max" unit_tag=nm test_value=590
compound="O=C1C2=C(C3CC3)c3ccsc3C3(C4CC5CC(C4)CC3C5)C2C(=O)N1C(=O)c1ccccc1 (centres unmarked)" recorded_metric="λ max" unit_tag=nm test_value=570
compound="CC(C)C1=C2C(=O)N(S(C)(=O)=O)C(=O)C2C2(c3c1ccn3C)C1CC3CC2CC(Cl)(C3)C1 (centres unmarked)" recorded_metric="λ max" unit_tag=nm test_value=601
compound="COc1ccc(-c2cc3c(s2)C2(C4CC5CC(C4)CC2C5)C2C(=O)N(CC#N)C(=O)C2=C3C)cc1 (centres unmarked) [E, reference compound]" recorded_metric="λ max" unit_tag=nm test_value=580
compound="CCOC12CCC(CC1)C21c2sc3ccccc3c2C(CC)=C2C(=O)N(S(=O)(=O)CC)C(=O)C21 (centres unmarked)" recorded_metric="λ max" unit_tag=nm test_value=548
compound="CCOC(=O)CN1C(=O)C2=C(C)c3cc(-c4ccc(OC)cc4)n(C)c3C3(C4CC5CC(C4)CC3C5)C2C1=O (centres unmarked) [H, reference compound]" recorded_metric="λ max" unit_tag=nm test_value=620
compound="CC1=C2C(=O)N(C#N)C(=O)C2C2(c3oc(-c4ccccc4)cc31)C1CC3CC(C1)CC2C3 (centres unmarked)" recorded_metric="λ max" unit_tag=nm test_value=603

---

- ASSAY_TEXT: Developed color of polymer plate under xenon light (color density, maximum absorption wavelength)
- Type: physicochemical
- CONDITION_SUMMARY: 0.04 parts in polymer plate
RECORDED_METRIC: Color density

Illustrative cases are given below, each with its answer.
compound="COc1ccc(-c2cc3c(n2C)C2(C4CC5CC(C4)CC2C5)C2C(=O)N(CC#N)C(=O)C2=C3C)cc1 (stereo not shown) [I, reference compound]" recorded_metric="Color density" test_value=0.73
compound="CC1=C2C(=O)N(C(=O)c3ccccc3)C(=O)C2C2(c3occc31)C1CC3CC(C1)CC2C3 (stereo not shown)" recorded_metric="Color density" test_value=0.58

(a) CC(=O)N1C(=O)C2=C(C)c3ccsc3C3(C4CC5CC(C4)CC3C5)C2C1=O (stereo not shown)
(b) CC12CCCC(CCC1)C21c2sc([N+](=O)[O-])cc2C(C2CC2)=C2C(=O)N(C(=O)c3c(F)c(F)c(F)c(F)c3F)C(=O)C21 (stereo not shown)
Could you tell me which of these two has the smaller Color density figure? First: a Second: b // respond with label for picked entry
a
(a: 0.70, b: 1.02)

---

- ASSAY_TEXT: Wear life (T 1/2) of polymer plate in xenon fade meter, JIS L0843 and JIS B7754
- Assay type: physicochemical
- CONDITION_SUMMARY: time until color density decreases to one-half the initial value
RECORDED_METRIC: T1/2 (h)

compound="O=C1C2=C(C3CC3)c3c(sc4c3CCCC4)C3(C4CC5CC(C4)CC3C5)C2C(=O)N1S(=O)(=O)c1ccccc1 (stereo not shown)" recorded_metric=T1/2 unit_tag=h test_value=140
compound="COc1ccc(-c2cc3c(n2C)C2(C4CC5CC(C4)CC2C5)C2C(=O)N(CC#N)C(=O)C2=C3C)cc1 (stereo not shown) [I, reference compound]" recorded_metric=T1/2 unit_tag=h test_value=80
compound="COC12CC3CC(C1)C1(c4c(c5ccccc5n4-c4ccccc4)C(C4CC4)=C4C(=O)N(C(Cl)(Cl)Cl)C(=O)C41)C(C3)C2 (stereo not shown)" recorded_metric=T1/2 unit_tag=h test_value=145
compound="COc1c(C)sc2c1C1(C3CC4CC(C3)CC1C4)C1C(=O)N(C(=O)Oc3ccccc3)C(=O)C1=C2C (stereo not shown)" recorded_metric=T1/2 unit_tag=h test_value=120
compound="CSc1cc2c(n1C)C1(C3C(=O)N(C(F)(F)F)C(=O)C3=C2C(C)C)C2(C)CCC1(C)CC2 (stereo not shown)" recorded_metric=T1/2 unit_tag=h test_value=110

(A) CC(=O)N1C(=O)C2=C(C)c3ccsc3C3(C4CC5CC(C4)CC3C5)C2C1=O (stereo not shown)
(B) CC1=C2C(=O)N(C#N)C(=O)C2C2(c3occc31)C1CC3CC(C1)CC2C3 (stereo not shown)
Could you tell me which of these two has the smaller T1/2 figure? First: A Second: B // respond with label for picked entry
A
(A: 105 h, B: 265 h)
